Where these numbers come from: the supplement of paper PMC9170038

Tested on: MS2 coat protein
Assay: apparent KD of MS2 coat protein; designed switch direction (-1 OFF switch, 1 ON switch): -1; higher = weaker reporter binding
Conditions: input ligand: FMN 200 uM
The threshold is inclusive: apparent KD of MS2 coat protein of exactly 40 nM counts as criterion met; values below receive criterion not met.

Some solved entries appear below for comparison.
{"columns": ["query_sequence", "assigned_class"],
 "data": [
  ["AUAAUGUAAGGAUAUCAGUCGACUAGCCUCGGCUAGUCGACUGAGAAGGUACAUGAGGAUCACCCAUGUGUUUC [E4/12-A3] (Eterna round: R97, puzzle: Exclusion 4)", "criterion met"],
  ["CGGAUGUUAGGAUAUUAGUAGUAGUCAGAAAAGACUAUUACUGAGAAGGAACAUGAGGAUCACCCAUGUAUCCG [Mat - Exclusion 4 - Eli Mod - D45] (Eterna round: R97, puzzle: Exclusion 4)", "criterion not met"],
  ["UUUGUUUAUGUAGGAUAUGCCUGGCGUGCCUUUGCAGAAGGACAUGAGGAUCACCCAUGUAUUGCGGUCUGCGUUCAGAUCGCU [salish99_ExNG1_r4_037] (Eterna round: R96, puzzle: Exclusion NG 1)", "criterion not met"],
  ["CUGUUCCGUGUAGGAUAUGCAUAUUCCCAUUAUGCAGAAGGACAUGAGGAUCACCCAUGUAUGUUAUUAUCAUGUGUUACAUGC [Design 8] (Eterna round: R96, puzzle: Exclusion NG 1)", "criterion met"]
]}

Switching to the query record.
Determine whether measured apparent KD of MS2 coat protein meets or exceeds 40 nM for GACAGCAUGCAGGAUAUACCUCCUCUGCGGACGGUAGAAGGGCGUACAUGAGGAUCACCCAUGUCACCCAUUUC [Eternabot (L2) Solution 61] (Eterna round: R97, puzzle: Exclusion 6)
criterion not met

###

System: MS2 coat protein
Assay: apparent KD of MS2 coat protein; higher = weaker reporter binding
Conditions: Eterna round: R101; input ligand: none
The threshold is inclusive: apparent KD of MS2 coat protein of exactly 20 nM counts as 1 (yes); values below receive 0 (no).

Some solved entries appear below for comparison.
{"columns": ["query_sequence", "assigned_class"],
 "data": [
  ["ACAGGUCGUGAGAAGGCGUGUGGCACCGUCGAAAGACGGUGCAAUUAAAAUCUUCGAGGAUCACCCGAGGAUAUCACGACCUGA [#SharedSequence - IExNG2: 19] (puzzle (switch architecture): Inverted Exclusion NG 2)", "0 (no)"],
  ["GUCAGCUCGUGAGGAUAUACAUCACUGCUUCGGCAGUGUAUUAAGAUAACAUGAGGAUCACCCAUGUAGAAGGCACGAGCUGAU [#MS2NeighbourBaseDeletion - ENG2/2-A2] (puzzle (switch architecture): Exclusion NG 2)", "0 (no)"],
  ["AGACCUGCUCAGAAGGCGGGUGCGAGGCUGGAAACAGCCUCGAAUUAAAAUCUUCGAGGAUCACCCGAGGAUAUGAGCAGGUCA [#SharedSequence - IExNG2: 16] (puzzle (switch architecture): Inverted Exclusion NG 2)", "1 (yes)"],
  ["UUUUUUUUUUUUUACGCUUUGCGACGAGAAGGUACACAUGAGGAUCACCCAUGUCGAUUGGGAGGUAAGGAUAUUGGAUUGCGU [Inverted Small Loop Same State NG 3 Solution, Uracil-heavy] (puzzle (switch architecture): Inverted Small Loop Same State NG 3)", "0 (no)"],
  ["UAAAUAAAUCCUAGAGGAUCACCCUAGGAUAUGAGGCUGCACCUCGGAUAAUCCGAGGUGCAGCCUCAGAAGGAGGUUGAUAAA [#SharedSequence - SLExNG3: 6-2] (puzzle (switch architecture): Small Loop Exclusion NG 3)", "0 (no)"],
  ["AUCAGCUCGUCAGGAUAUACGUCACUGCGUCAGCAGUGUGGUAAGAUCACAUGAGGAUCACCCAUGUAGAAGGGACGAGCUGAU [#MiniMS2Turnoff - Ex NG2 #82] (puzzle (switch architecture): Exclusion NG 2)", "0 (no)"],
  ["GGUGUUAACACAGGAUAUCUGCGUAAACAGCGCGGAGAAGGGUGGGUGACCAAGGACACAUGAGGAUCACCCAUGUACCCUUAA [Timadier] (puzzle (switch architecture): Same State NG 1)", "1 (yes)"],
  ["CGGGAUACGAAGGGCGAAAGCCCACAUGAGGAUCACCCAUGUAGAAGGCGGGCCGCAACGCGGCCCGAGGAUAUACAGUAUCCA [#my 5th design] (puzzle (switch architecture): Inverted Exclusion NG 3)", "0 (no)"],
  ["UAAAUAAAUCCUAGAGGAUCACCCUAGGAUAUGAGGCUGCACCUCGGAUAAUCCGAGGUGCAGCCUCAGAAGGAGGAAAAUAAA [#SharedSequence - SLExNG3: 4-2] (puzzle (switch architecture): Small Loop Exclusion NG 3)", "0 (no)"],
  ["UAAAUAAAUCCUAGAGGAUCACCCUAGGAUAUCACCGUCGAGGUGCCAUAAUGGCACCUCGACGGUGAGAAGGAGGGUAAUAAA [#SharedSequence - SLExNG3: 1-1] (puzzle (switch architecture): Small Loop Exclusion NG 3)", "0 (no)"]
]}

Determine whether measured apparent KD of MS2 coat protein meets or exceeds 20 nM for GGUCGACCUCAAGGAUAUGGACUGCAAAGCAGUCCAGAAGGUGAGGAUCACCCAUCUACGGUCAGGAAACUGACCGAUCGACCA [#SharedSequence - ExNG1-6] (puzzle (switch architecture): Exclusion NG 1)
1 (yes)

###

System: MS2 coat protein
Assay: apparent KD of MS2 coat protein; designed switch direction (-1 OFF switch, 1 ON switch): -1; higher = weaker reporter binding
Details: Eterna round: R95; input ligand: microRNA oligo, concentration not stated
The threshold is inclusive: apparent KD of MS2 coat protein of exactly 0.02 µM counts as 1 (yes); values below receive 0 (no).

Some solved entries appear below for comparison.
{"columns": ["query_sequence", "assigned_class"],
 "data": [
  ["GUAGAGUAAGGAUAUUGUGAAUAGGAUAGAAUGGUUAGAAACAAGAAGGUACAUGAGGAUCACCCAUGUAAUGU [Excluse me!!!! 20 - Jieux - Exclusion 4] (puzzle: Exclusion 4)", "1 (yes)"],
  ["GUAUCGUGAGGAUAUCAUGAUUGACUUUUGUUUUGUCAGCGUGAGAAGGCACAUGAGGAUCACCCAUGUGAUUA [Ex4 - 3 - 9] (puzzle: Exclusion 4)", "1 (yes)"]
]}

Determine whether measured apparent KD of MS2 coat protein meets or exceeds 0.02 µM for AAAUACAAGCAAAGAUCCUACAUGAGGAUCACCCAUGUGCUCGUCUUAUAAAGUACUAUCACGAAAGUGAUAGUACA [Sensor 3, v1 - 15] (puzzle: Sensor v3, turn-off variant 1)
1 (yes)

Determine whether measured apparent KD of MS2 coat protein meets or exceeds 0.02 µM for UCGGCGCGAGGAUAUGCGGUUUGUGCUUUGGGCCCUGGCGUACAUGAGGAUCACCCAUGUAGAAGGCGCGCCGC [Apr-15 SS2-47] (puzzle: Exclusion 2)
0 (no)

Determine whether measured apparent KD of MS2 coat protein meets or exceeds 0.02 µM for CUCUUGUUAGGAUAUCAAACCAGCGGCGGAACCGCUGGUAGUGAGAAGGGACAUGAGGAUCACCCAUGUAAGAA [Bige] (puzzle: Exclusion 4)
1 (yes)

###

Tested on: K4 kissing-loop RNA reporter;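 note: bound reporter read as fluorescence of individual clusters on recovered sequencing chips by microscopy, with normalized cluster intensities fitted with a binding model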
Assay: apparent KD of K4 kissing-loop reporter; higher = weaker reporter binding
Details: Eterna round: R107; input ligand: none
The threshold is inclusive: apparent KD of K4 kissing-loop reporter of exactly 400 nM counts as Yes; values below receive No.

Some solved entries appear below for comparison.
{"columns": ["query_sequence", "assigned_class"],
 "data": [
  ["AUUCAGAUCUGAAGGAGCGCCUUGACAAAUUACUGCUUUGAGCAGUGAUGUUGCUCAAUUAGGCAGGUAGGUCGCAGAUCUAACC [Arg B Ex t7]", "Yes"],
  ["AAAAUAAUCCAGUGAUGUUGGUCUCCAGAUACCAGCGACGAAAGUCGCCCUUGGCAGCUGUGGACGUACAAAAUAAGUACGUCCU", "Yes"],
  ["AAUAAGUGUCAGCGAGUGAUGUUCGACGAUACCAGCCUCGAUAGAGGCCCUUGGCAGCGUAACGCAUGCCAAACUGGCACAAUAA [#SwitchBubble 7 #K4Early]", "Yes"]
]}

Determine whether measured apparent KD of K4 kissing-loop reporter meets or exceeds 400 nM for CGUGCCCGGCCGGAUACCAGUGACCCGCUGGGAACCGCGGGCCCAGAGUGAUGUUCGGGACACCCUUGGCAGCCGCCUGGGCGGC [#2 Same State - Theophylline B Attempt #13 (HarryS)]
Yes

Determine whether measured apparent KD of K4 kissing-loop reporter meets or exceeds 400 nM for GGCACGGUGACGCGGCUGCCGUGCGCUUGGGAGGAUAUGUUUCGUGACAGAAGGCCCAGUGAUGUUGGGUCUGUUCAAAAGGACU [Edmatianri]
No

Determine whether measured apparent KD of K4 kissing-loop reporter meets or exceeds 400 nM for GCAUCGAUGGCAGGAUAUAGGUUCGUGGAGUGAUGUUCCAUAGCCCGAGUGAUGUUCGUUAUCCGCCUAGAAGGGCCGUGGAUGC [whbob_Ex_FMNB__2th215]
No
